- target.or.system: COX1 (prostaglandin G/H synthase 1) (Ovis aries, UniProt P05979)
- Sequence (P05979 whole entry): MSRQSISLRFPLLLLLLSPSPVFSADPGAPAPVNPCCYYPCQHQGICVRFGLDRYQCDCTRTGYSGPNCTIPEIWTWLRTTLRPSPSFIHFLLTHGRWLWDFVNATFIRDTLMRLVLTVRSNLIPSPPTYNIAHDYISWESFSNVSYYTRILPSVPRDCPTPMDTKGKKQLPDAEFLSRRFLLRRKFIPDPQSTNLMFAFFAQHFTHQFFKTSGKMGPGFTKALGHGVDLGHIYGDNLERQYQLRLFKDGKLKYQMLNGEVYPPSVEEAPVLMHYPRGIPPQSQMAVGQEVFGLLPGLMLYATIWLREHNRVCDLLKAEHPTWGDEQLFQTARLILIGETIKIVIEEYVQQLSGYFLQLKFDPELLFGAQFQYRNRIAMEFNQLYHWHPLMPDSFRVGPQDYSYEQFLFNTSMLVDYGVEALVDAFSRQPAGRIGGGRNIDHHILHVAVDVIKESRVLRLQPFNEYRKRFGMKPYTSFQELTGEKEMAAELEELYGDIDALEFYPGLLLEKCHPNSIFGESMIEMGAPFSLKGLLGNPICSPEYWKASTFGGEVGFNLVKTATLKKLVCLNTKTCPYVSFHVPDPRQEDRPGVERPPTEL
- assay.protocol: Inhibition of ovine COX1 assessed as reduction in PGF2alpha production at 100 uM by ELISA
- run.conditions: sheep, ovine COX1 enzyme
property.measured: inhibition at 100 µM (%)
# output: bare number, implied unit %

Use the examples below as a reference point.
Oc1noc2cccc(Nc3cccc(S(F)(F)(F)(F)F)c3)c12    0
Oc1noc2cccc(Nc3cccc(C(F)(F)F)c3)c12    29
Oc1noc2cccc(Nc3cc(C(F)(F)F)cc(C(F)(F)F)c3)c12    2.1
O=[N+]([O-])c1cccc(Nc2cccc3onc(O)c23)c1    0
O=C(Nc1cccc(C(F)(F)F)c1)c1c(O)nnn1Cc1ccc(OC(F)(F)F)cc1    0
Oc1noc2ccc(Nc3cccc(C(F)(F)F)c3)cc12    29

As a next step, examine the molecule that follows.
Looking up "COc1ccc(Cn2nnc(O)c2C(=O)Nc2cccc(C(F)(F)F)c2)cc1OC" , I see its inhibition at 100 µM listed as 0
